- assayedTarget: Glucocorticoid receptor (Homo sapiens)
- assayOverview: qHTS assay to identify small molecule antagonists of the glucocorticoid receptor (GR) signaling pathway (AID 720692); note: % is set by controls: 0 for no effect and ±100 for the full control effect
- condition: GR-bla HeLa, beta-lactamase FRET ratio, dexamethasone-stimulated, 18 h; series mostly up to 58.5 µM
Results filed as inconclusive are left out. Active and inactive are the calls of the source. Calls come from the whole dose curve; as a rule, active = well fitted inhibition curve with a large enough effect in the signal ratio in the repeat runs (not every such curve was filed as active); inconclusive = weak or mixed curves, or effect the other way; inactive = no such curve, though single readings can be large or run the other way; the % refers to the signal ratio.
Would you mind answering with one of these outcomes? 1.0 for active, 0.0 for inactive

Solved entries (count: 5):
Query: Please state the recorded outcome for this compound: `CCCCCCCCCCCCN`
Result: 0.0

Query: Record: `CCCCCCOC(C)=O`
Result: 0.0

Query: Record: `NC(=O)NNc1ccccc1`
Result: 0.0

Query: Record: `CN(C)c1cccc(O)c1`
Result: 0.0

Query: Record: `CC(C)(N=C=O)c1cccc(C(C)(C)N=C=O)c1`
Result: 0.0

New cases:
Query: Please state the recorded outcome for this compound: `Oc1ccc2ccccc2c1`
Result: 0.0

Query: Record: `C=C(C)C(=O)OCC(CC)(COC(=O)C(=C)C)COC(=O)C(=C)C`
Result: 0.0

Query: Record: `NC(=O)/N=N/C(N)=O`
Result: 0.0

Query: Record: `OCC#CCO`
Result: 0.0

Query: Record: OCC1CCCO1 (stereo not drawn)
Result: 0.0

----------
- assayedTarget: Aryl hydrocarbon receptor (Homo sapiens) (UniProt P35869)
- Sequence (P35869 whole entry, looked up): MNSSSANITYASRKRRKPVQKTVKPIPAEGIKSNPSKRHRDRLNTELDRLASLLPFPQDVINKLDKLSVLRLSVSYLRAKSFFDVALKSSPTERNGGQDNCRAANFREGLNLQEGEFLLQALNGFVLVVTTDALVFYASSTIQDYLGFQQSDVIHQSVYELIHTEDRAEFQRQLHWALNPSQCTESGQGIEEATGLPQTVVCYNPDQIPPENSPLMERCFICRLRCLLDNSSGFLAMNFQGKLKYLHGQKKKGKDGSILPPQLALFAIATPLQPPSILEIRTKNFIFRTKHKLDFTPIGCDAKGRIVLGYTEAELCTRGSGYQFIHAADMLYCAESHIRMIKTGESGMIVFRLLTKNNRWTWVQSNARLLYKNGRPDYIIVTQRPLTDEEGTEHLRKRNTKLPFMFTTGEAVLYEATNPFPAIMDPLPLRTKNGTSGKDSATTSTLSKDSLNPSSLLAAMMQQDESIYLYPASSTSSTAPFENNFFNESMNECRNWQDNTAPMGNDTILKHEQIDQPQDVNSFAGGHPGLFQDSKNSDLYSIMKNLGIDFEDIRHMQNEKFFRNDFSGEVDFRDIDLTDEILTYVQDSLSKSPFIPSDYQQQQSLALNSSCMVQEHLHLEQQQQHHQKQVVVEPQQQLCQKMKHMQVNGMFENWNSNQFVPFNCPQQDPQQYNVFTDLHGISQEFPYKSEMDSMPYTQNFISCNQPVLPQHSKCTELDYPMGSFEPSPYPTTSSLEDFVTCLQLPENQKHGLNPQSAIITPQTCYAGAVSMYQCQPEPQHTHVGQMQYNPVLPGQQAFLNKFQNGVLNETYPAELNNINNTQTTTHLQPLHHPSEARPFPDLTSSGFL
- assayOverview: qHTS assay to identify small molecule that activate the aryl hydrocarbon receptor (AhR) signaling pathway (AID 743085);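 note: HG2L7.5c1 human HepG2 liver cells with stably integrated DRE-driven firefly reporter; % is set by controls: 0 for no effect and ±100 for the full control effect; nearly all actives have a fitted effect of over 15% in size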
- condition: HepG2 AhR-luc (HG2L7.5c1), luciferase, 24 h; series mostly up to 70.3 µM
Records with an inconclusive call do not appear. Activity calls are given as the source filed them. The call rests on the fitted dose curve; in most records, active means well fitted activation curve with a large enough effect in the repeat runs; inconclusive means weak or mixed curves; inactive means no such curve, though single readings can be large or run the other way.
experimentalEndpoint: outcome

Example results:
Query: Give outcome (Aryl hydrocarbon receptor (Homo sapiens) (UniProt P35869)) of the following molecule: `O=C(O)c1ccc([N+](=O)[O-])cc1`
Result: inactive

Query: Record: `C=C(C#N)C(=O)OCC`
Result: inactive

Query: Record: `Cc1ccc(C)c(C)c1`
Result: inactive

Query: Record: `OC[C@@H](O)[C@H](O)[C@H](O)[C@@H](O)CO`
Result: inactive

Query: Record: `Cc1cc(=O)[nH]c(C(C)C)n1`
Result: inactive

New cases:
Query: Give outcome (Aryl hydrocarbon receptor (Homo sapiens) (UniProt P35869)) of the following molecule: CCCCC(CC)COC(C)=O (stereo unspecified)
Result: inactive

Query: Record: `OCCOCCOCCOCCO`
Result: inactive

Query: Record: CCC(C)C=O (stereo unspecified)
Result: inactive

Query: Record: `CC1(C)O[C@@H]2C[C@H]3[C@@H]4C[C@H](F)C5=CC(=O)CC[C@]5(C)[C@H]4[C@@H](O)C[C@]3(C)[C@]2(C(=O)CO)O1`
Result: inactive

Query: Record: `C/C=C(C)/C=C/C=C(C)C`
Result: inactive

Query: Record: `C=C(C)C(=O)OCCCCCCCCCCCC`
Result: inactive

----------
- assayOverview: qHTS assay to identify small molecule agonists of the hypoxia (HIF-1) signaling pathway - cell viability counter screen (AID 1224844); note: % is set by controls: 0 for no effect and ±100 for the full control effect; nearly all actives have a fitted effect of over 50% in size
- condition: HRE-bla ME-180 viability, CellTiter-Glo luminescence, 17 h; series mostly up to 76.8 µM
Inconclusive results are not listed. Active and inactive are the calls of the source. Calls come from the whole dose curve.
experimentalEndpoint: outcome

Query: Tell me the measured outcome of `CC(C)n1c(/C=C/[C@@H](O)C[C@@H](O)CC(=O)O)c(-c2ccc(F)cc2)c2ccccc21` , please.
Result: inactive

Query: Record: `Cc1ccc(C)c(C)c1`
Result: inactive

Query: Record: `O=C(Cl)c1c(Cl)c(Cl)c(C(=O)Cl)c(Cl)c1Cl`
Result: inactive

Query: Record: `CC1=C(/C=C/C(C)=C/C=C/C(C)=C/CO)C(C)(C)CCC1`
Result: inactive
